Provenance of the data: PubChem BioAssay AID449762

# METHOD: M. tuberculosis growth inhibition, HTS (AID 449762);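 also: bacterial growth assessed after seven days of incubation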
# MEASUREMENT_CONTEXT: M. tuberculosis H37Rv growth inhibition, 7H9 media; at 25 µM; stronger effect = higher value
Hit rate of the full screen: of about 330,000 compounds, about 1,900 (0.58%) were called active. Another 4% or so got no clear call; they are omitted. The list is a sample of the results. Potency and affinity values are given separately.
RECORDED_METRIC: inhibition (%)
The figure you give is taken to be in %; do not add the unit.

Lookup: Query: inhibition; subject: C[C@H](NC(=O)N1CCn2c1nc1ccccc12)C(=O)N1CCCCC1
Found: -4.78

Lookup: Query: inhibition; subject: O=C(CCc1ccc(Oc2cc([N+](=O)[O-])cc([N+](=O)[O-])c2)cc1)NC1CCCC1
Found: 30.8

Lookup: Query: inhibition; subject: O=C(COC(=O)C1CC2CCCC(C1)C2=O)NNC(=O)c1ccccc1Br (stereo unspecified)
Found: -3.73

Lookup: Query: inhibition; subject: COc1cc(CNn2nnnc2N)cc(Br)c1OCc1c(Cl)cccc1Cl
Found: 0.85

Lookup: Query: inhibition; subject: CCn1c(=O)c(CCC(=O)N2CCN(c3ccccn3)CC2)c(C)c2c(C)nn(-c3ccccc3)c21
Found: 9.63

Lookup: Query: inhibition; subject: CCOC(=O)c1ccc(NC(=O)COc2coc(CN3CCc4ccccc43)cc2=O)cc1
Found: 34.3

Lookup: Query: inhibition; subject: Cc1sc2ncnc(N(C)Cc3ccco3)c2c1C
Found: -1.32

Lookup: Query: inhibition; subject: CCCCNc1c(-c2ccc(OC)c(SC3CCCCC3)c2)nc2ccc(Cl)cn12
Found: 8.29

Lookup: Query: inhibition; subject: O=C(Nc1ccc(Br)cc1Cl)c1ccc(OCC2CCCO2)cc1 (stereo unspecified)
Found: 3.35

Lookup: Query: inhibition; subject: C=CCN(CC=C)C(=S)NC(=O)/C=C/c1ccccc1
Found: -2.7

Lookup: Query: inhibition; subject: CSc1ccccc1NC(=O)CN1c2ccccc2CC1C (stereo unspecified)
Found: 7.66

Lookup: Query: inhibition; subject: COC(=O)c1ccccc1NC(=O)c1cc2n(n1)C(C(F)F)CC(C(F)F)N2 (stereo unspecified)
Found: -2.91

Lookup: Query: inhibition; subject: CN1C(=O)[C@H]2[C@@H](/C=C/c3ccccc3)N3C(=O)CN(Cc4ccccn4)C(=O)[C@@]3(Cc3ccccc3)[C@H]2C1=O
Found: -6.69

Lookup: Query: inhibition; subject: Cc1noc(C)c1S(=O)(=O)Nc1ccc(C(=O)N2CCC(C)CC2)cc1
Found: 8.59

Lookup: Query: inhibition; subject: COc1ccc(-c2oc(NC(C)=O)c(C#N)c2-c2ccc(OC)cc2)cc1
Found: 3.57

Lookup: Query: inhibition; subject: CC(=O)c1ccccc1NC(=O)COC(=O)CCC1CCCC1
Found: 9.67

Lookup: Query: inhibition; subject: CC1CCCCN1CCNC(=O)C1CCCN(S(=O)(=O)c2cccc3nsnc23)C1 (stereo unspecified)
Found: 3.33

Lookup: Query: inhibition; subject: CCn1c(=O)c(CCC(=O)N2CCOCC2)c(C)c2c(C)nn(-c3ccccc3)c21
Found: 12.3

Lookup: Query: inhibition; subject: COc1cc(C(=O)NNC(=O)c2ccc3ccccc3n2)cc(OC)c1OC
Found: 5.84

Lookup: Query: inhibition; subject: CNC(C)C#Cc1ccc2c(=O)c3cc(C)c(C)cc3oc2c1 (stereo unspecified)
Found: 1.51

Lookup: Query: inhibition; subject: Cc1ccc(-c2csc(NC(=O)c3ccccc3Cl)c2C(=O)O)cc1
Found: 13.9
